These entries and their values trace back to the METLIN SMRT retention time set (Domingo-Almenara et al. 2019).

Experiment: gradient 5% acetonitrile 3 min, to 50% in 2 min, to 85% in 15 min, held 3 min, 100 µL/min
Conditions: column: Zorbax Extend-C18 2.1 x 50 mm; eluents: water / acetonitrile, 0.1% formic acid
quantity_measured: RP-LC retention time (s)

[P] Cc1c(F)cccc1NC(=O)N1CCN(C2=CC3=NC(C)CN3C=N2)CC1 (stereo not drawn)
[Q] Cc1ccc(Sc2nccnc2N2CCCC(C(=O)N3CCN(c4ccc(F)cc4)CC3)C2)cc1 (stereo not drawn)
Asked: Lowest RP-LC retention time? choose P or Q Lab note: record the label of whichever item you select.
Given back: P
(P: 649 s, Q: 1230 s)

====

Test: gradient 5% acetonitrile 3 min, to 50% in 2 min, to 85% in 15 min, held 3 min, 100 µL/min
Conditions: column: Zorbax Extend-C18 2.1 x 50 mm; eluents: water / acetonitrile, 0.1% formic acid
quantity_measured: RP-LC retention time (s)

O=C(NCc1ccc2c(c1)OCO2)C1CCCN(c2ccc(N3CCOCC3)nn2)C1 (centres undefined) = 609
Fc1ccc(CN2CCc3nc(N4CCOCC4)ncc3C2)cc1 = 608
CCOC(=O)C1=C(CN2CCCCCC2)NC(=O)NC1c1ccc(OC(C)C)cc1 (centres undefined) = 679
CN(C)C[C@@H]1CN(c2ncccn2)C[C@H]1NC(=O)c1ccc(Cl)s1 = 605

====

Assay: gradient 5% acetonitrile 3 min, to 50% in 2 min, to 85% in 15 min, held 3 min, 100 µL/min
Details: column: Zorbax Extend-C18 2.1 x 50 mm; eluents: water / acetonitrile, 0.1% formic acid
quantity_measured: RP-LC retention time (s)

Answered cases to consult:
CC1(C(=O)NCc2ccccc2)CCCN(C(=O)NCc2ccc(F)cc2)C1 (stereo unspecified) = 831
CCc1nnc2nc(N3CCN(C(=O)c4nccc5ccccc45)CC3)cc(C)n12 = 559
Cc1ccc(N2CC(c3nc(-c4ccc5c(c4)ncn5CCC(=O)N4CCCC4)no3)CC2=O)cc1 (stereo unspecified) = 676

[A] O=C(NC1CC1)c1ccc(-c2nc3cccnc3n(C3CCCC3)c2=O)cc1
[B] O=C(NCc1ccc2c(c1)OCO2)C(=O)NCC1CCCO1 (stereo unspecified)
Asked: Choose between A and B : whose measured RP-LC retention time value is numerically larger? Mark your answer with the label of the selected entry.
Given back: A
(A: 970 s, B: 639 s)

====

Assay: gradient 5% acetonitrile 3 min, to 50% in 2 min, to 85% in 15 min, held 3 min, 100 µL/min
Conditions: column: Zorbax Extend-C18 2.1 x 50 mm; eluents: water / acetonitrile, 0.1% formic acid
quantity_measured: RP-LC retention time (s)

CCn1cc(C)c(C(=O)O)c1CC(=O)Nc1ccc(C)cn1 = 680

[1] CC(C)n1c(C2CCN(C(=O)C3CCCO3)CC2)nn(C)c1=O (stereo unspecified)
[2] COc1ccc(OC)c(S(=O)(=O)N2CCc3nc(-c4ccccc4)ncc3C2)c1
Asked: Sorting by RP-LC retention time in descending order, would 1 or 2 appear first? To answer, give the label that identifies your chosen option.
Given back: 2
(2: 998 s, 1: 592 s)

[A] Cn1cc(-c2cc3n(n2)CCCN3C(=O)CCC(=O)NCCCN2CCCCC2)c2ccccc21
[B] CCCCN1N=C(C(=O)N2CCC(C)CC2)S(=O)(=O)c2ccccc21
Asked: Hi there! Just curious which has the higher RP-LC retention time between A and B . Answer = label.
Given back: B
(B: 1030 s, A: 623 s)
